Target: c-Src SH2;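 also: peptide library displayed on the E. coli surface as eCPX fusions, selected cells deep-sequenced, score is each peptide's frequency after selection divided by its frequency in the input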
Experiment: SH2 binding enrichment of the phosphorylated peptide, bacterial display (enrichment ratio); higher = better substrate or ligand; peptides without Tyr show the background
Grouping key: SH2 binding enrichment. Bins: low = under 0.5, intermediate = from 0.5 up to 0.6, high = 0.6 and over

FMYKVYSDPQP [FGFR1_Y280_C277Y] ... high

Request: State the class of the sequence shown: LKRIAYFLCLL [LGI1_Y21]
Result: high

Request: For the record TWSPKYTLRSH [STRN3_Y474_N471S] , report the class its SH2 binding enrichment corresponds to.
Result: high

Request: Would you mind sorting NYNPNYCFAGK [ALK_Y1096_D1091N] into the appropriate category?
Result: intermediate

Request: Which SH2 binding enrichment category applies to RGDCMYASLLG [AR_Y269_P271S] here?
Result: high

Taken from the supplement of paper PMC10065799.
